Data origin, for the record: patent US20230181554A1

So I've got a bunch of molecules here, and I need their concentration from which the sum of neurite lengths was significantly increased values.
Test system: mouse primary cultured motor neurons
test method notes: Neurite outgrowth action in mono-culture of motor neurons
Assay type: cell-based
protocol conditions: total protrusion length on day 4 after treatment, versus control (Dunnett's test)
All answers are understood in µmol/L, so give the number only.

# return recorded concentration from which the sum of neurite lengths was significantly increased for entry CC(C)=CCC[C@@H](C)[C@H]1CC=C2C3=C(CC[C@@]21C)[C@@]1(C)CC[C@H](O)C(C)(C)[C@@H]1CC3 [FF-MAS]
1.1

# return recorded concentration from which the sum of neurite lengths was significantly increased for entry O=C1Cc2cc(CCN3CCN(c4nsc5ccccc45)CC3)c(Cl)cc2N1 [ziprasidone]
1

# return recorded concentration from which the sum of neurite lengths was significantly increased for entry CC(C(O)c1ccc(O)cc1)N1CCC(Cc2ccccc2)CC1 (stereo not shown) [ifenprodil]
1

# return recorded concentration from which the sum of neurite lengths was significantly increased for entry CCC(C)(C)c1ccc(CC(C)CN2C[C@@H](C)O[C@@H](C)C2)cc1 (stereo partly shown) [amorolfine]
0.3
